Listed compounds paired with reported pEC50
# TARGET ENTITY: S1P1 (Homo sapiens (Human))
# Sequence (P21453 whole entry, species assumed): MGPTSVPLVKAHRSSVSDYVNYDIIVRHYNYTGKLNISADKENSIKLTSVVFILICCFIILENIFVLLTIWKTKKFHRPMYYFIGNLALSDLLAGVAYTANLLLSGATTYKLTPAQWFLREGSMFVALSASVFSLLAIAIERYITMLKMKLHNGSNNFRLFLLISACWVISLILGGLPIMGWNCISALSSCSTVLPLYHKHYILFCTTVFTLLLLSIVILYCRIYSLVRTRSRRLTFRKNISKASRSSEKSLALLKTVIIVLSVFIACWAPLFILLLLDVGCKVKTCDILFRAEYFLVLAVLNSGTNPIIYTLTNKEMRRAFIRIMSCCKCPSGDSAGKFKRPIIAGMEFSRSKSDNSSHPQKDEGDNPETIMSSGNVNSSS
# ASSAY REMARKS: 35S-GTPγS binding, S1P1 membranes
# EXPERIMENTAL CONDITIONS: membranes from CHO cells expressing S1P1
The read-out pEC50 is expressed as -log10 of concentration in moles per litre.

// solved cases for pEC50 follow
| COMPOUND | TARGET ENTITY | pEC50 |
| --- | --- | --- |
| CC1CCCCN1c1ccc(-c2nc(-c3ccc4[nH]cnc4c3)no2)cc1C#N (centres unmarked) | S1P1 (Homo sapiens (Human)) | 8.00 |
| CC1CCCCN1c1ccc(-c2nc(-c3ccc4c(c3)CNCC4)no2)cc1NS(C)(=O)=O (centres unmarked) | S1P1 (Homo sapiens (Human)) | 8.22 |
| CC1CCCCN1c1ccc(-c2nc(-c3ccc4c(c3)CNCC4)no2)cc1C(F)(F)F (centres unmarked) | S1P1 (Homo sapiens (Human)) | 7.92 |
| COc1cc2[nH]c(C(=O)O)cc2cc1-c1noc(-c2ccc(N3CCCCC3C)c(C(F)(F)F)c2)n1 (centres unmarked) | S1P1 (Homo sapiens (Human)) | 6.33 |

Here's the next entry for you.
Please give the measured pEC50 for this compound: Cc1cc(-c2nc(-c3ccc4[nH]cnc4c3)no2)cnc1N1CCCCC1C (centres unmarked)
7.03
